- Study target: HLA-A*0301 (human)
- Assay explanation: competition with 125I probe peptide, purified HLA class I
- Condition parameters: remark: other sources report otherwise
Non-standard residues stand in square brackets, D forms with d. No end group written: not given here. Abu = CC[C@H](N)C(=O)O
Observation type: pIC50
Please keep in mind that pIC50 is minus log10 of the molar concentration; only the number is needed.

Given SV[Abu]MGGMNK [1371.24 SVBMGGMNK p53.240.V2B3K9] , state its recorded pIC50.
7.90

Hello, the source for this data is patent US20050196403A1, in case you need it.
